Known pEC50 of a selection of compounds
- System: SARS-CoV-2
- assay_protocol: microbe, parasite or virus in culture
- Assay type: cell-based
- condition_label: Severe acute respiratory syndrome coronavirus 2, 48 h; read-out: SARS-CoV-2 EC50
Please treat pEC50 as minus the base-10 logarithm of the molar concentration.

Reference set (2 entries):
CCCCCCCCCCCCCCCCCCOC[C@@H](COP(=O)(O)OC[C@H]1O[C@@](C#N)(c2ccc3c(N)ncnn23)[C@H](O)[C@@H]1O)OCc1ccccc1	6.49
CCCCCCCCCCCCCCCCCCOC[C@H](COP(=O)(O)OC[C@H]1O[C@@](C#N)(c2ccc3c(N)ncnn23)[C@H](O)[C@@H]1O)OCc1ccc2ccccc2c1	6.47

Give pEC50 (SARS-CoV-2) of the following compound: "CCCCCCCCCCCCCCCCCCOC[C@H](COP(=O)(O)OC[C@H]1O[C@@](C#N)(c2ccc3c(N)ncnn23)[C@H](O)[C@@H]1O)OCc1ccc(-c2ccccc2)cc1"
6.37

Give pEC50 (SARS-CoV-2) of the following compound: "CCCCCCCCCCCCCCCCCCOC[C@H](COP(=O)(O)OC[C@H]1O[C@@](C#N)(c2ccc3c(N)ncnn23)[C@H](O)[C@@H]1OC(=O)C(C)C)OCc1ccccc1"
5.49

Give pEC50 (SARS-CoV-2) of the following compound: "CCCCCCCCCCCCCCCCCCOC[C@H](COP(=O)(O)OC[C@H]1O[C@@](C#N)(c2ccc3c(N)ncnn23)[C@H](O)[C@@H]1O)OCc1ccc(C#N)cc1"
6.57

Give pEC50 (SARS-CoV-2) of the following compound: "CCCCCCCCCCCCCCCCCCCOC[C@H](COP(=O)(O)OC[C@H]1O[C@@](C#N)(c2ccc3c(N)ncnn23)[C@H](O)[C@@H]1O)OCc1ccccc1"
6.43

Give pEC50 (SARS-CoV-2) of the following compound: "CCCCCCCCCCCCCCCCCCOC[C@H](COP(=O)(O)OC[C@H]1O[C@@](C#N)(c2ccc3c(N)ncnn23)[C@H](O)[C@@H]1O)OCc1ccc(F)c(F)c1"
6.49

Give pEC50 (SARS-CoV-2) of the following compound: "CCCCCCCCCCCCCCCCCCCCOC[C@H](COP(=O)(O)OC[C@H]1O[C@@](C#N)(c2ccc3c(N)ncnn23)[C@H](O)[C@@H]1O)OCc1ccccc1"
6.10

Give pEC50 (SARS-CoV-2) of the following compound: "CCCCCCCCCCCCCCCCCCOC[C@H](COP(=O)(O)OC[C@H]1O[C@@](C#N)(c2ccc3c(N)ncnn23)[C@H](O)[C@@H]1O)OCc1ccccc1"
6.03

Give pEC50 (SARS-CoV-2) of the following compound: "CCCCCCCCCCCCCCCCOC[C@H](COP(=O)(O)OC[C@H]1O[C@@](C#N)(c2ccc3c(N)ncnn23)[C@H](O)[C@@H]1O)OCc1ccccc1"
6.32

Give pEC50 (SARS-CoV-2) of the following compound: "CCCCCCCCCCCCCCCCCOC[C@H](COP(=O)(O)OC[C@H]1O[C@@](C#N)(c2ccc3c(N)ncnn23)[C@H](O)[C@@H]1O)OCc1ccccc1"
6.02

Give pEC50 (SARS-CoV-2) of the following compound: "CCCCCCCCCCCCCCCCCCOC[C@H](COP(=O)(O)OC[C@H]1O[C@@](C#N)(c2ccc3c(N)ncnn23)[C@H](O)[C@@H]1O)OCC1CCCCC1"
6.47

Give pEC50 (SARS-CoV-2) of the following compound: "CCCCCCCCCCCCCCCCCCOC[C@H](COP(=O)(O)OC[C@H]1O[C@@](C#N)(c2ccc3c(N)ncnn23)[C@H](O)[C@@H]1O)OCc1cc(F)cc(F)c1"
6.59
